- Tested on: MDA-MB-231 breast
- protocol summary: NCI-60 one-dose screen, 48 h (100 = growth as untreated, 0 = no growth, -100 = all killed)
- condition notes: 10 µM unless noted
About 83,000 compounds went through this panel and 20% of them were active in at least one assay; those are over-represented in the sample as a whole.
assay endpoint: growth (%)
Numbers only, in %.

[[record]]
molecule = "CN1C(=O)C(C2=NN(C=O)C(c3ccc(F)cc3)C2)C(=O)N(C)C1=O (stereo not given)"
study_system = "MDA-MB-231 breast"
endpoint_unit = "%"
endpoint_value = 106

[[record]]
molecule = "OC(c1cc(-c2cccc(Cl)c2)nc2ccccc12)C1CCCCN1 (stereo not given)"
study_system = "MDA-MB-231 breast"
endpoint_unit = "%"
endpoint_value = -6.36


Batch lookup, growth per entry.
1. C=C1CCC2C(C)(COC(=O)CC)C(OC(=O)CC)CCC2(C)C1C/C=C1/C(=O)OCC1OC(=O)CC (stereo not given)
2. Cc1ccc(C(NC(=O)c2ccccc2)c2ccc3cccnc3c2O)cc1 (stereo not given)
3. O=C(N/N=C/c1cccc(O)c1)c1ccc(C(F)(F)F)nc1Nc1cccc(C(F)(F)F)c1
4. CCOC(=O)/C(=C/CC/C(C)=C/CC/C(C)=C/CCc1ccoc1)CC(=O)N1CCCCC1

Reply:
1. -29.6
2. 16.5
3. -26.8
4. -21.9

Please state, for each entry, its recorded growth.
1. CCCCCCCC[Si](OCC)(OCC)OCC
2. N/C(=N\C(N)=N\c1nc2ccccc2s1)c1ccnc(Cl)c1

Reply:
104
49.7

Please look at the items below and tell me growth for each one, in order.
1. CSc1nc2nc3c(nc2c(=O)n1C)C(=O)c1ccccc1C3=O
2. Cc1ccc(C(=O)Cc2ccccc2)c(O)c1

Reply:
1: -4.27; 2: 103

====

- System: SN12C renal
- protocol summary: NCI-60 one-dose screen, 48 h
- condition notes: 10 µM unless noted
About 83,000 compounds went through this panel and 20% of them were active in at least one assay; those are over-represented in the sample as a whole. Activity calls are given as the source filed them. Rule for the calls: active = growth percent below 10; inactive = the rest.
Respond only with the outcome that fits, drawn from active, inactive

[[record]]
compound = "CC(=O)OC1Oc2cc(C)c(C)cc2-c2oc(=O)c(-c3ccccc3)cc21 (stereo not drawn)"
discrete_label = "inactive"

[[record]]
compound = "C=CCNC(=O)/C(=C/c1cccc([N+](=O)[O-])c1)NC(=O)c1ccccc1"
discrete_label = "inactive"

[[record]]
compound = "C/C(=C\\CCc1ccsc1)CC/C=C(\\C)CCCN1CCSCC1"
discrete_label = "inactive"


Task item: How did this test come out for COc1cccc(/C=N\NC(=O)c2ccncc2)c1O ?
Reply: inactive

Task item: Next entry: CCOc1cc(/C=C/C(=O)C(C(=O)/C=C/c2ccc(OC(=O)CNc3nc4ccccc4[nH]3)c(OCC)c2)C(=O)CNc2nc3ccccc3[nH]2)ccc1OC(=O)CNc1nc2ccccc2[nH]1
Reply: active

Task item: Follow-up item: COC(=O)C1(NC(=O)CNC(=O)OCc2ccccc2)CCCC1
Reply: inactive

Task item: Query COc1cc(NC(=O)NCc2ccco2)ccc1-c1ccc(NC(=O)NCc2ccco2)cc1OC next
Reply: inactive

Task item: Another: C[C@H]1C(=O)N2c3ccccc3[C@@]3(O)C[C@@H](n4cnc5ccccc5c4=O)C(=O)N1[C@@H]23
Reply: inactive

====

- System: OVCAR-4 ovarian
- protocol summary: NCI-60 one-dose screen, 48 h (100 = growth as untreated, 0 = no growth, -100 = all killed)
- condition notes: 10 µM unless noted
The panel holds about 83,000 compounds, 20% with a hit somewhere; the sample as a whole holds those more often.
param class (str): category from growth; see ranges Low: < 70%; Mid: ≥ 70% and < 90%; High: ≥ 90%

[[record]]
line_notation = "COc1ccc2c(c1)CC/C(=C\\c1ccc(OCC(=O)Nc3nc4ccccc4s3)cc1)C2=O"
discrete_label = "High"

[[record]]
line_notation = "CC(=O)Nc1cc(C(c2ccccc2)c2ccccc2)cc(C(c2ccccc2)c2ccccc2)c1C"
discrete_label = "Low"

[[record]]
line_notation = "CCc1nn2c(-c3ccc(Cl)cc3C)c(-c3cc(OC)c(OC)c(OC)c3)nc2s1"
discrete_label = "Low"

[[record]]
line_notation = "O=C(/C=C/c1ccc([N+](=O)[O-])cc1)c1ccc2c3c(cccc13)CC2"
discrete_label = "Mid"


Task item: Quick check: band for c1ccc2c(-c3nc4ccccc4[nH]3)cccc2c1
Reply: Mid

Task item: Likewise for C=CCNC(=O)/C(=C/c1cccc([N+](=O)[O-])c1)NC(=O)c1ccccc1 ?
Reply: High

Task item: COc1ccc(-c2c3c(N)nc(-c4ccncc4)nc3nc3c2c(C)nn3-c2ccccc2)cc1 , same question.
Reply: Low

Task item: Here is the next molecule: CSc1nc(Nc2ccc(S(=O)(=O)Nc3ccon3)cc2)c(C#N)c(-c2ccc(Cl)cc2)n1
Reply: High

Task item: What do you have for COP(=O)(OC)C(c1ccccc1)(c1ccccc1)c1ccccc1 ?
Reply: High

====

- Test system: MDA-MB-435 melanoma
- protocol summary: NCI-60 one-dose screen, 48 h
- condition notes: 10 µM unless noted
This is part of a sample that, as a whole, favours compounds with a hit. Of some 83,000 tested, about 20% had one in any assay. Calls of active or inactive are those of the source. The calls were made as follows: active = growth percent below 10; inactive = the rest.
# valid calls are active, inactive; nothing else

See these solved cases before continuing.
[[record]]
compound = "Oc1c(Cl)cc(Oc2cc(Cl)c(O)c(CN3CCOCC3)c2)cc1CN1CCOCC1"
study_system = "MDA-MB-435 melanoma"
discrete_label = "inactive"

[[record]]
compound = "CCCCCCCCCCCCC1CCCC(C)C1 (stereo unspecified)"
study_system = "MDA-MB-435 melanoma"
discrete_label = "inactive"

[[record]]
compound = "NS(=O)(=O)c1cc2c(cc1Cl)NC=NS2(=O)=O"
study_system = "MDA-MB-435 melanoma"
discrete_label = "inactive"


Task item: How was O=C1CSC(c2ccccc2O)N1c1nnc(Cn2ccnc2)o1 (stereo unspecified) classified in this test?
Reply: inactive

Task item: Follow-up entry: BrC1CC(Br)c2c1c1c(c3c2C(Br)CC3Br)C(Br)CC1Br (stereo unspecified)
Reply: inactive

Task item: Param item: CC(C)CNc1nc(N=[N+]=[N-])nc(NCC(C)C)n1
Reply: inactive

====

- Tested on: EKVX NSCLC
- protocol summary: NCI-60 one-dose screen, 48 h (100 = growth as untreated, 0 = no growth, -100 = all killed)
- condition notes: 10 µM unless noted
The panel holds about 83,000 compounds, 20% with a hit somewhere; the sample as a whole holds those more often. The source made the active and inactive calls. The calls were made as follows: active = growth percent below 10; inactive = the rest.
Task for the reader: assign each of the following molecules its reported growth.

// worked examples, growth included
[[record]]
molecule = "O=CN1N=C(c2ccc(Cl)cc2)CC1c1cccc(Nc2ccnc3cc(Cl)ccc23)c1 (stereo not given)"
study_system = "EKVX NSCLC"
endpoint_value = "30.3% (inactive)"

[[record]]
molecule = "O=C(COc1ccc(/C=C2\\Cc3ccccc3C2=O)cc1)c1ccc(Cl)cc1"
study_system = "EKVX NSCLC"
endpoint_value = "101% (inactive)"

[[record]]
molecule = "Nc1ccc(Oc2c(F)c(F)c(Oc3ccc(N)cc3)c(F)c2F)cc1"
study_system = "EKVX NSCLC"
endpoint_value = "105% (inactive)"

[[record]]
molecule = "Cc1nn(-c2ccccc2)cc1/C=C1\\SC(N2CCCCC2)=NC1=O"
study_system = "EKVX NSCLC"
endpoint_value = "94.2% (inactive)"


From here, focus on the item given below.
Task item: Entry O=C(CNC(=O)c1cccc2ccccc12)Nc1ccccc1Oc1ccc(O)cc1 : reported growth = ?
Reply: 52.4% [5 µM] (inactive)

====

- Test system: OVCAR-4 ovarian
- protocol summary: NCI-60 one-dose screen, 48 h (100 = growth as untreated, 0 = no growth, -100 = all killed)
- condition notes: 10 µM unless noted
- Description: Growth inhibition of the OVCAR-4 human tumor cell line is measured as a screen for anti-cancer activity. Cells are grown in 96 well plates and exposed to the test compound for 48 hours. Compounds are tested at a single concentration, which is 10^-5 M for most compounds. The reported endpoint is percent growth (GI% or GIPRCNT), where numbers from 0 - 100% represent growth inhibition, and numbers from -100% - 0 represent cell death. For example, a value of 40 represents 60% growth inhibition. […]
About 83,000 compounds went through this panel and 20% of them were active in at least one assay; those are over-represented in the sample as a whole. Active and inactive are the calls of the source. How the source made its calls: active means growth percent below 10; inactive means the rest.
Could you please report measured growth for the items listed next?

Known growth results, listed for orientation:
[[record]]
compound = "OC(c1cc(-c2cccc(Cl)c2)nc2ccccc12)C1CCCCN1 (stereo unspecified)"
endpoint_value = "-7.1% (active)"

[[record]]
compound = "Cc1sc2nc(NCCc3cccs3)[nH]c(=O)c2c1C"
endpoint_value = "95.6% (inactive)"

[[record]]
compound = "CCOC(=O)c1sc(NC(=O)COc2cccc(/C=C3\\CCc4cc(OC)ccc4C3=O)c2)nc1C"
endpoint_value = "73.2% (inactive)"

[[record]]
compound = "COC(=O)c1cc2oc(/C=N\\NC(=O)c3cc4oc(C)c(C)c4[nH]3)cc2[nH]1"
endpoint_value = "118% (inactive)"

[[record]]
compound = "C/C(=C\\CCc1ccoc1)CC/C=C(\\C)CCCN1CCOCC1"
endpoint_value = "58.3% (inactive)"

[[record]]
compound = "COc1ccc(NC(=O)[C@@H]2C[C@H]2c2ccccc2)c(C(N)=O)c1"
endpoint_value = "107% (inactive)"

[[record]]
compound = "COc1ccc2c(c1)sc1nc(-c3ccc(N(C)C)cc3)cn12"
endpoint_value = "97.8% (inactive)"

[[record]]
compound = "Cc1cc(=O)[nH]c(/C(=N/Nc2ccccc2)C(=O)c2ccc(Cl)cc2)n1"
endpoint_value = "111% (inactive)"


Working through the 3 compounds below one at a time, give growth for each.
1. COc1ccc(C(=O)COc2ccc(/C=C3\Oc4ccc5ccccc5c4C3=O)cc2)cc1
2. CCN1CC2=C(Nc3nc(SC)[nH]c(=O)c3C2c2cc(OC)c(OC)c(OC)c2)/C(=C/c2cc(OC)c(OC)c(OC)c2)C1 (stereo unspecified)
3. COc1ccc(OC)c(CCn2cncc2-c2c[nH]c3cc(Br)ccc23)c1

Reply:
["88.9% (inactive)", "95.9% (inactive)", "21.6% (inactive)"]

Entry source: PubChem BioAssay (NCI)
